// provenance: the supplement of paper PMC6953052

Would you mind telling me the reported fraction of GFP-LC3-positive cells of each entry?
Test system: CbCln3 Δex7/8/Δex7/8 GFP-LC3 cerebellar neuronal cells
Assay: fraction of GFP-LC3-positive cells (≥5 vesicles/cell); higher = more autophagosome accumulation
Over roughly 1,700 compounds, “fraction of GFP-LC3-positive cells (≥5 vesicles/cell)” has its median near 0.43; the highest 2% begin near 0.81. The list comes from a sample in which the highest values are over-represented; it also holds close analogues and randomly drawn compounds.
Answers are plain numbers.

Worked examples follow.
Field fraction of GFP-LC3-positive cells (entry O=C(CCCN1CCC2(CC1)C(=O)NCN2c1ccccc1)c1ccc(F)cc1 [Spiperone] ) reads 0.376

Field fraction of GFP-LC3-positive cells (entry N#CC(C#N)=NNc1ccc(OC(F)(F)F)cc1 ) reads 0.936

Field fraction of GFP-LC3-positive cells (entry C[N+]1(C)C2CC[C@H]1C[C@@H](OC(=O)C(CO)c1ccccc1)C2.O=[N+]([O-])[O-] (some centres not stated) [Methylatropine nitrate] ) reads 0.451

Field fraction of GFP-LC3-positive cells (entry COc1ccc2c(c1O)-c1c(OC)c(OC)cc3c1[C@H](C2)N(C)CC3 [Isocorydine (+)] ) reads 0.379

Field fraction of GFP-LC3-positive cells (entry CC(C)(C)c1cc(C=C(C#N)C#N)cc(C(C)(C)C)c1O ) reads 0.718

Field fraction of GFP-LC3-positive cells (entry O=C1C=CC(=O)c2c(O)cccc21 [juglone] ) reads 0.367

Field fraction of GFP-LC3-positive cells (entry Br.C[C@@H]1NCCc2cc(O)c(O)cc21 [Salsolinol hydrobromide] ) reads 0.504

Field fraction of GFP-LC3-positive cells (entry Cc1nccc2c1[nH]c1ccccc12.Cl [Harmane hydrochloride] ) reads 0.55

List fraction of GFP-LC3-positive cells for every entry below, keeping the order given.
1. C/C1=C/C(=O)O[C@@H]2C[C@@H](CC[C@H](C)/C=C\CC1)O[C@@](O)([C@@H]1CSC(=O)N1)C2 [Latrunculin B]
2. COc1ccc(CCN2CCC(Nc3nc4ccccc4n3Cc3ccc(F)cc3)CC2)cc1 [Astemizole]
3. CCN1C[C@@]2(COC)C3[C@@H](OC)[C@H]4[C@@H]1[C@@]3(C1C[C@@]3(O)[C@H](OC(=O)c5ccccc5)C1[C@]4(OC(C)=O)[C@@H](O)[C@H]3OC)[C@@H](OC)C[C@H]2O (some centres not stated) [Aconitine]
4. COc1cc2c(c(OC)c1OC)-c1ccc(O)c(=O)cc1[C@@H](N)CC2 [Trimethylcolchicinic acid]

A:
1. 0.84
2. 0.587
3. 0.413
4. 0.415
